Molecular target: Dihydroorotate dehydrogenase, mitochondrial, putative (Plasmodium vivax (strain Salvador I), UniProt A5K1N1)
Sequence (A5K1N1 whole entry): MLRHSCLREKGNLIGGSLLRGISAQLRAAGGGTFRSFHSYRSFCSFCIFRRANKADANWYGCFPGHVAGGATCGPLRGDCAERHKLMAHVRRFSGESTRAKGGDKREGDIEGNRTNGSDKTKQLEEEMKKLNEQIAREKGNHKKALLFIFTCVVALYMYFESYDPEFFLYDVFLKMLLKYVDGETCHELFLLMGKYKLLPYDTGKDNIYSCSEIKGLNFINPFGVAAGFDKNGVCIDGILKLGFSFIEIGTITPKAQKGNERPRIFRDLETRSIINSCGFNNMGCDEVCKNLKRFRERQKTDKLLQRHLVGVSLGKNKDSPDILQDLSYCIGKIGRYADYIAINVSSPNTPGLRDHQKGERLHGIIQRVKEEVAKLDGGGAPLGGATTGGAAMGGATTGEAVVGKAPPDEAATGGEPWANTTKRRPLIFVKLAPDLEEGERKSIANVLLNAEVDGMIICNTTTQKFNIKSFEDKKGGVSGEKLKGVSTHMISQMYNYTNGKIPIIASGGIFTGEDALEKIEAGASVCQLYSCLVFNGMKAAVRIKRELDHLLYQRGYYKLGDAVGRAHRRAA
Assay: Enzymatic Assays: Type 2 DHODH activity was monitored with either the direct assay measuring the formation of orotate or via a chromogen reduction assay using DCIP. Although the extinction coefficient and absorption wavelength are preferable for the chromogen reduction assay, the […] electron acceptor DCIP can be utilized by DHODH as the final electron acceptor in lieu of CoQn when the endogenous substrate is at a low concentration. As such, the direct assay was used to measure the binding affinity of pfDHODH to CoQD and L-DHO. The enzymatic reaction was performed by varying the L-DHO concentration (1-400 μM) or CoQD concentration (1-200 μM) while keeping the other substrate constant and in excess. Inhibition of DHODH by small molecules was evaluated using the chromogen based assay with a final substrate concentration of 200 μM L-DHO, 18 μM CoQD, and 100 μM DCIP, unless otherwise noted.
measured_quantity: IC50 (µM)
Could you give me the number in µM? Just the number is fine.

Q. Would you mind telling me what IC50 value was observed for Cc1ccccc1/C=C/c1cc(O)c2ccccc2n1 ?
A. 5.6

Attribution: ChEMBL document CHEMBL3639068
